Would you kindly list pIC50 for each of these compounds?
target: pY705-STAT3 in PBMC (Homo sapiens, UniProt P40763); construct: Cryopreserved Peripheral Blood Mononuclear Cells (PBMC) are from AllCells; host or cells: cryopreserved PBMC; assay: MSD-pSTAT-PBMC Assay (pSTAT3, IL-6 stimulated); assay type: cell-based; details: PBMC, compound 3 hrs, then 10 ng/mL IL-6 for 10 min; Table 115; read-out: STAT3
Sequence (P40763 whole entry): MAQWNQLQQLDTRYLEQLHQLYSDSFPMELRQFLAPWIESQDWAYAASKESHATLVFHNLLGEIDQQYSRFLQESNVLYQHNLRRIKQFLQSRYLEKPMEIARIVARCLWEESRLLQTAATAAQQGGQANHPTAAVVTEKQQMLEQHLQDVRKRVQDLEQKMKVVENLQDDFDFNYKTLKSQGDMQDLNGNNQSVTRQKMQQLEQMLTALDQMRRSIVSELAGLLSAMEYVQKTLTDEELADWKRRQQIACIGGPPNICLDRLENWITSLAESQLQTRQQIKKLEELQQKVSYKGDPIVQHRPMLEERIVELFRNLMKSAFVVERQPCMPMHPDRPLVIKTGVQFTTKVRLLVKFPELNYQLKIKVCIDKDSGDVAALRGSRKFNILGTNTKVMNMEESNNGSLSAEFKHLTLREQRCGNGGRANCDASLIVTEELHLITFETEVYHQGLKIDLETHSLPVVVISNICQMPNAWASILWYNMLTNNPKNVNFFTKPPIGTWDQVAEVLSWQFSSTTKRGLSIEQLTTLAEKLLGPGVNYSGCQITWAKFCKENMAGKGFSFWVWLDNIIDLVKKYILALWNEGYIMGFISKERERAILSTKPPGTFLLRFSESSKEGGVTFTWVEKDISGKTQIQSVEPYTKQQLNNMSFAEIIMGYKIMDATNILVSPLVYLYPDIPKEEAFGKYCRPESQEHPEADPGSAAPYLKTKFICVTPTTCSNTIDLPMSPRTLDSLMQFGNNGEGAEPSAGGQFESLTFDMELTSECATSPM
pIC50: −log10 of the molar value.

Item under review: CC(C)COC(=O)[C@H](C)NP(=O)(Oc1ccccc1)C(F)c1ccc2sc(C(=O)N[C@H]3CCC[C@H]4CC[C@@H](C(=O)N5CC(c6cnccc6F)C5)N4C3=O)cc2c1 (some centres unmarked) [Compound 277] . Reported pIC50?
> 7.00

One more compound: CCCOC(=O)[C@H](C)NP(=O)(Cc1ccc2sc(C(=O)N[C@H]3CCC[C@H]4CC[C@@H](C(=O)N5CC(c6cnccc6C)C5)N4C3=O)cc2c1)Oc1ccccc1 (some centres unmarked) [Compound 951]
> 7.00

One more compound: COc1ccncc1C1CN(C(=O)[C@@H]2CC[C@@H]3CCC[C@H](NC(=O)c4cc5cc([C@@H](F)[P@](=O)(N[C@@H](C)C(=O)OCc6ccccc6)Oc6ccccc6)ccc5s4)C(=O)N32)C1 (single isomer, unassigned) [Compound 1055]
> 7.00

One more compound: CCCOC(=O)[C@H](C)N[P@@](=O)(Oc1ccccc1)[C@H](F)c1ccc2sc(C(=O)N[C@H]3CCC[C@H]4CC[C@@H](C(=O)N5CC(c6cnccc6C)C5)N4C3=O)cc2c1 (single isomer, unassigned) [Compound 1049]
> 7.00

One more compound: CCCOC(=O)[C@H](C)NP(=O)(Cc1ccc2sc(C(=O)N[C@H]3CCC[C@H]4CC[C@@H](C(=O)N5CC(c6cccnc6)C5)N4C3=O)cc2c1)OCCOC (some centres unmarked) [Compound 438]
5.52 to 6.00

One more compound: CCCOC(=O)[C@H](C)N[P@](=O)(Oc1ccccc1)[C@@H](F)c1ccc2sc(C(=O)N[C@H]3CCC[C@H]4CC[C@@H](C(=O)N5CC(c6cnccc6N6CCOCC6)C5)N4C3=O)cc2c1 (single isomer, unassigned) [Compound 1047]
6.00 to 7.00

One more compound: COc1ccncc1C1CN(C(=O)[C@@H]2CC[C@@H]3CCC[C@H](NC(=O)c4cc5cc([C@@H](F)[P@](=O)(N[C@@H](C)C(=O)OCC(C)(C)C)Oc6ccccc6)ccc5s4)C(=O)N32)C1 (single isomer, unassigned) [Compound 1057]
> 7.00

One more compound: CCCOC(=O)[C@H](C)NP(=O)(Oc1ccccc1)C(F)c1ccc2sc(C(=O)N[C@H]3CCCC[C@H]4CC[C@@H](C(=O)N5C[C@@H](C#N)[C@H](c6ccccc6)C5)N4C3=O)cc2c1 (single isomer, unassigned) [Compound 315]
< 5.52

====

molecular target: Recombinant STAT3 protein (STAT3 (G127-I722)) (Homo sapiens); construct: Recombinant STAT3 protein (STAT3 (G127-I722)); test: STAT3 Fluorescence Polarization (FP) Assay; format: binding; conditions: STAT3 (G127-I722) 25 nM, probe 5-FAM-GpYLPQTV-NH2 2 nM, 45-minute incubation; read-out: STAT3 (FP assay IC50 class)
measured parameter: IC50

Param readout= IC50; system= Recombinant STAT3 protein (STAT3 (G127-I722)) (Homo sapiens); entry= CC(C)Oc1ccncc1C1CN(C(=O)[C@@H]2CC[C@@H]3C[C@@H](C)C[C@H](NC(=O)c4cc5cc([C@H](F)P(=O)(O)O)ccc5s4)C(=O)N32)C1 (single isomer, unassigned) ; returns value.
< 0.1 µM

One more compound: `Cc1cncnc1C1CN(C(=O)[C@@H]2CC[C@@H]3CCC[C@H](NC(=O)c4cc5cc(C(F)(F)P(=O)(O)O)ccc5s4)C(=O)N32)C1`
0.1 to 1 µM

One more compound: CS(=N)(=O)c1cnc(C2CN(C(=O)[C@@H]3CC[C@@H]4CCCC[C@H](NC(=O)c5cc6cc(C(F)(F)P(=O)(O)O)ccc6s5)C(=O)N43)C2)nc1 (stereo partly shown)
0.1 to 1 µM

One more compound: O=C(N[C@H]1CCCC[C@H]2CC[C@@H](C(=O)N3CCC(c4cccnc4)C3)N2C1=O)c1ccc2ccc(CP(=O)(O)O)cc2c1 (stereo partly shown)
1 to 10 µM

====

Target: Recombinant STAT6 protein (STAT6 (W123-T658)) (Homo sapiens)
Construct: Recombinant STAT6 protein (STAT6 (W123-T658))
Sequence (P42226 123-658): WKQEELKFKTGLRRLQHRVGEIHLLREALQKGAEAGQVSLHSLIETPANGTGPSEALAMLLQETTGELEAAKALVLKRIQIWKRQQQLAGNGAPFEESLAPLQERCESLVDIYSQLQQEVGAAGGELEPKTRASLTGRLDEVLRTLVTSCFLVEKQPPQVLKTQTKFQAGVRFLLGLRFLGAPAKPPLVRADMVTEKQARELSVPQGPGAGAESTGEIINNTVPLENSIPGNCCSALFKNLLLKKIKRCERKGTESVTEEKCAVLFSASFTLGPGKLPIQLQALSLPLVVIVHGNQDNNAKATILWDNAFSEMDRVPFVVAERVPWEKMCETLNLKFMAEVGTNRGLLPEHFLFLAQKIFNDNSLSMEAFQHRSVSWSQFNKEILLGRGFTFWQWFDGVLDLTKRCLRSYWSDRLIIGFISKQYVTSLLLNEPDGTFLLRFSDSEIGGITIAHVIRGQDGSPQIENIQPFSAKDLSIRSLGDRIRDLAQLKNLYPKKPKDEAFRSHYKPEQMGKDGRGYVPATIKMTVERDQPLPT
Assay: STAT6 Fluorescence Polarization (FP) Assay
Type: binding
Conditions: STAT6 (W123-T658) 250 nM, probe 5-FAM-Ap[…]-NH2 2 nM, 45-minute incubation; read-out: STAT6 (FP assay IC50 class)
measured parameter: IC50

Item under review: COc1ccncc1[C@@H]1CCN(C(=O)[C@@H]2CC[C@@H]3CCC[C@H](NC(=O)c4cc5cc(C(F)P(=O)(O)O)ccc5s4)C(=O)N32)C1 (stereo partly drawn) [Compound 706] . Reported IC50?
0.3 to 3 µM

One more molecule: CC(O)C1(c2ccccc2)CN(C(=O)[C@@H]2CC[C@@H]3CCCC[C@H](NC(=O)c4cc5cc(C(F)(F)P(=O)(O)O)ccc5s4)C(=O)N32)C1 (stereo partly drawn) [Compound 495]
3 to 30 µM

One more molecule: Cn1ncc(C2CN(C(=O)[C@@H]3CC[C@@H]4CCC[C@H](NC(=O)c5cc6cc(C(F)P(=O)(O)O)ccc6s5)C(=O)N43)C2)c1F (stereo partly drawn) [Compound 635]
3 to 30 µM

One more molecule: COc1cc(C2CN(C(=O)[C@@H]3CC[C@@H]4CCC[C@H](NC(=O)c5cc6cc([C@@H](F)P(=O)(O)O)ccc6s5)C(=O)N43)C2)ccn1 (single isomer, unassigned) [Compound 702]
3 to 30 µM

One more molecule: O=C(N[C@H]1CCC[C@H]2CC[C@@H](C(=O)N3CC(c4cnccc4OCc4ccncc4)C3)N2C1=O)c1cc2cc(C(F)P(=O)(O)O)ccc2s1 (stereo partly drawn) [Compound 705]
3 to 30 µM

One more molecule: COc1ccncc1[C@H]1CCN(C(=O)[C@@H]2CC[C@@H]3CCC[C@H](NC(=O)c4cc5cc(C(F)P(=O)(O)O)ccc5s4)C(=O)N32)C1 (stereo partly drawn) [Compound 707]
0.3 to 3 µM

One more molecule: O=C(N[C@H]1CCCC[C@H]2CC[C@@H](C(=O)N3CC(c4cccnc4)CC34CC4)N2C1=O)c1cc2cc(C(F)P(=O)(O)O)ccc2s1 (stereo partly drawn) [Compound 912]
≤ 0.3 µM

One more molecule: N#C[C@@H]1CN(C(=O)[C@@H]2C[C@@H](O)[C@@H]3CCCCC[C@H](NC(=O)c4cc5cc(C(F)P(=O)(O)O)ccc5s4)C(=O)N23)C[C@H]1c1ccccc1 (relative stereo) [Compound 553]
0.3 to 3 µM

One more molecule: O=C(N[C@H]1CCC[C@H]2CC[C@@H](C(=O)N3CC(c4cnccc4Cl)C3)N2C1=O)c1cc2cc(CP(=O)(O)O)ccc2s1 [Compound 519]
3 to 30 µM

====

target: Recombinant STAT6 protein (STAT6 (W123-T658)) (Homo sapiens, UniProt P42226); construct: Recombinant STAT6 protein (STAT6 (W123-T658)); assay: STAT6 Fluorescence Polarization (FP) Assay; assay type: binding; details: STAT6 (W123-T658) 250 nM, probe 5-FAM-Ap[…]-NH2 2 nM, 45-minute incubation; read-out: STAT6 (FP assay IC50 class)
pIC50: −log10 of the molar value.
measured parameter: pIC50

Item under review: `O=C(N[C@H]1CCC[C@H]2CC[C@@H](C(=O)N3CC(c4cnccc4N4CCCC4=O)C3)N2C1=O)c1cc2cc(CP(=O)(O)O)ccc2s1` . Reported pIC50?
4.52 to 5.52

One more molecule: O=C(N[C@H]1CCCC[C@H]2CC[C@@H](C(=O)N[C@H]3CN(C(=O)OC4CC4)C[C@@H]3F)N2C1=O)c1cc2cc(C(F)P(=O)(O)O)ccc2s1 (stereo partly shown)
5.52 to 6.52

One more molecule: C[C@@H]1CC[C@H](NC(=O)c2ccc3ccc(CP(=O)(O)O)cc3c2)C(=O)N2[C@H](CC[C@H]2C(=O)N2CC(c3ccccc3)CC23CC3)C1 (stereo partly shown)
5.52 to 6.52

One more molecule: O=C(N[C@H]1CCC[C@H]2CC[C@@H](C(=O)N3CC(n4cc(F)cn4)C3)N2C1=O)c1cc2cc(C(F)P(=O)(O)O)ccc2s1 (stereo partly shown)
4.52 to 5.52

One more molecule: `Cn1cnc2ncc(CNC(=O)[C@@H]3CC[C@@H]4CCC[C@H](NC(=O)c5cc6cc(C(F)(F)P(=O)(O)O)ccc6s5)C(=O)N43)cc21`
5.52 to 6.52

One more molecule: `O=C(N[C@H]1CCCC[C@H]2CC[C@@H](C(=O)NCc3cnc4[nH]ccc4c3)N2C1=O)c1cc2cc(C(F)(F)P(=O)(O)O)ccc2s1`
5.52 to 6.52

One more molecule: N#C[C@@H]1[C@@H](c2cccnc2)CN(C(=O)[C@@H]2CC[C@@H]3CCC[C@H](NC(=O)c4cc5cc([C@H](F)P(=O)(O)O)ccc5s4)C(=O)N32)C12CC2 (single isomer, unassigned)
≥ 6.52
